# test.summary: qHTS RealTime-Glo MT Cell Viability Assay in HepG2 cells - 32 hour (AID 1224877); also: nearly all actives have a fitted effect of over 55% in size
# experimental.parameters: RealTime-Glo luminescence; series mostly up to 76.8 µM
Inconclusive results are not listed. The source made the active and inactive calls. Calls follow the shape of the dose curve; as a rule, active = well fitted cell-killing curve with a large enough effect in the repeat runs; inconclusive = weak or mixed curves; inactive = flat fitted curve, though single readings scatter.
Would you mind answering with one of these outcomes? 1 (active), -1 (inactive)

compound	assigned.label
Cc1onc(-c2ccccc2Cl)c1C(=O)N[C@@H]1C(=O)N2[C@@H]1SC(C)(C)[C@@H]2C(=O)O	-1
Cc1c(C)c2c(c(C)c1OC(=O)CCC(=O)O)CC[C@@](C)(CCC[C@H](C)CCC[C@H](C)CCCC(C)C)O2	1
O=c1cc(-c2ccc(O)cc2)oc2cc(O)cc(O)c12	-1
NC(=O)NS(=O)(=O)c1ccc(N)cc1	-1
CCCCN1C(=O)[C@@H]([C@H](O)C2CCCCC2)NC(=O)C12CCN(Cc1ccc(Oc3ccc(C(=O)O)cc3)cc1)CC2	-1

### Prompt Field: outcome | Entry: C1CCCC1
### Response -1

### Prompt # fetch the recorded call for CCCCCCCCCCCC(=O)NCCCN(C)C here
### Response 1

### Prompt What was the test verdict on Cc1[nH]nc2c1N=C(c1ccccc1Cl)c1cc([N+](=O)[O-])ccc1N2 ?
### Response -1

### Prompt Short answer needed: outcome of this test for CCCCCCOC(=O)c1ccc(O)cc1 ?
### Response -1

### Prompt Outcome? Clc1ccc2nsnc2c1NC1=NCCN1
### Response -1

### Prompt GET /call?item= CC(C)(C)C(=O)OCOC(=O)C1N2C(=O)CC2S(=O)(=O)C1(C)C (stereo unspecified) returns the recorded outcome of this test.
### Response -1

###

# test.summary: qHTS assay to identify small molecule antagonists of the retinoic acid receptor (RAR) signaling pathway (AID 1159552; also: nearly all actives have a fitted effect of over 50% in size)
# experimental.parameters: C3RL4 RARE luciferase reporter, retinol-stimulated, 6 h; series mostly up to 92.4 µM
Records with an inconclusive call do not appear. The source made the active and inactive calls. The call rests on the fitted dose curve; in most records, active means well fitted inhibition curve with a large enough effect in the repeat runs; inconclusive means weak or mixed curves, or effect the other way; inactive means no such curve, though single readings can be large or run the other way.
Reply using exactly one outcome from Y = active, N = inactive

### Prompt Please indicate how the test categorized OCCCCCCCCCCCCBr .
### Response N

### Prompt Outcome logged for CCCCCCCC/C=C/CCCCCCCC1=NCCN1CCO in this assay:
### Response Y

### Prompt Just curious, what result did CCc1oc2ccccc2c1C(=O)c1cc(Br)c(O)c(Br)c1 get here?
### Response N

### Prompt GET /call?item= CC1=NC(C)OC1C (centres undefined) returns the recorded outcome of this test.
### Response N

###

# target.or.test.system: Voltage-gated inwardly rectifying potassium channel KCNH2 (Homo sapiens) (UniProt Q12809)
# Sequence (Q12809 whole entry, looked up): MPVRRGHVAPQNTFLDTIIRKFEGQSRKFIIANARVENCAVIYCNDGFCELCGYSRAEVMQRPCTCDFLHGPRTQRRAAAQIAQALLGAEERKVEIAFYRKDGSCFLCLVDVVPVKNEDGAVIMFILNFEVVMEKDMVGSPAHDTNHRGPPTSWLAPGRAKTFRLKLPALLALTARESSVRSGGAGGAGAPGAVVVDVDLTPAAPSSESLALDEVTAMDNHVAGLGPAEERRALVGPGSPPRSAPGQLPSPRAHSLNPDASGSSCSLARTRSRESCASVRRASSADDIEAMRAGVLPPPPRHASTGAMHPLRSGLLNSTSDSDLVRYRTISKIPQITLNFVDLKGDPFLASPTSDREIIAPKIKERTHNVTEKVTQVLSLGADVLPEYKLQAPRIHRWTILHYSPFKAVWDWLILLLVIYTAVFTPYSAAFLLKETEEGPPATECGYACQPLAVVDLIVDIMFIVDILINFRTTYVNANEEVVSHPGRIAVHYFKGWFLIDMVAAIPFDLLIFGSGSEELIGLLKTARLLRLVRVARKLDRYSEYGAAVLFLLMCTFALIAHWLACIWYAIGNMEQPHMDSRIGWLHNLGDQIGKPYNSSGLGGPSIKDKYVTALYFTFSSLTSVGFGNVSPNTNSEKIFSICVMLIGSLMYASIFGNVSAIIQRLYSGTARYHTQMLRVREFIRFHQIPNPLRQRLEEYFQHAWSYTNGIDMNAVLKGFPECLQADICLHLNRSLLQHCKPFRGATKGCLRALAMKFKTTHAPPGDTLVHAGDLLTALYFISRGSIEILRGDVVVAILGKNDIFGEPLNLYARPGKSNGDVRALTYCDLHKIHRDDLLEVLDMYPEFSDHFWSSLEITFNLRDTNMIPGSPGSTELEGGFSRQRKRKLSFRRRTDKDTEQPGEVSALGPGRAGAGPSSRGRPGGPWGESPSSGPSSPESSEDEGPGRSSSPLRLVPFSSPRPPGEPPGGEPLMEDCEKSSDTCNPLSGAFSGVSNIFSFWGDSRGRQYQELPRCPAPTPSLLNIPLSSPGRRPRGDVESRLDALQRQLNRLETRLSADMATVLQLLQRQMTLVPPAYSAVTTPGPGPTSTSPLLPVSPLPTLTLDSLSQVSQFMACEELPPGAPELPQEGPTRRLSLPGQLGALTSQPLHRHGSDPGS
# test.summary: Human Ether-a-go-go-Related Gene (hERG) channel small molecule antagonists: fluorescence cell-based qHTS assay (AID 1671200); also: nearly all actives have a fitted effect of over 50% in size
# experimental.parameters: hERG-U2OS cells, FluxOR thallium flux fluorescence; series mostly up to 76.8 µM
Records with an inconclusive call do not appear. Calls of active or inactive are those of the source. Calls follow the shape of the dose curve; as a rule, active = well fitted inhibition curve with a large enough effect in the repeat runs; inconclusive = weak or mixed curves; inactive = flat fitted curve, though single readings scatter.
Just give me one of these, please: active, inactive

Consider the following illustrative entries.
line.notation	assigned.label
O=C(c1ccc(F)cc1)C1CCN(CCn2c(=O)[nH]c3ccccc3c2=O)CC1	active
CC[C@H](c1ccc(O)cc1)[C@@H](CC)c1ccc(O)cc1	inactive
O=C1C=CC(=O)N1	inactive
[Cl][Au]([Cl])[Cl]	inactive
Nc1c(Cl)cc(Cl)cc1Cl	inactive

### Prompt Could you kindly confirm the outcome this assay logged for CCOC(=O)/C=C(C)/C=C/C=C(C)/C=C/c1c(C)cc(OC)c(C)c1C ?
### Response inactive

### Prompt How did this test come out for NNc1nc(-c2ccc(N)cc2)cs1 ?
### Response inactive

###

# test.summary: qHTS RealTime-Glo MT Cell Viability Assay in HepG2 cells - 40 hour (AID 1224870); also: nearly all actives have a fitted effect of over 50% in size
# experimental.parameters: RealTime-Glo luminescence; series mostly up to 76.8 µM
Results filed as inconclusive are left out. Calls of active or inactive are those of the source. Calls come from the whole dose curve; as a rule, active = well fitted cell-killing curve with a large enough effect in the repeat runs; inconclusive = weak or mixed curves, or effect the other way; inactive = flat fitted curve, though single readings scatter.
Answer with one of the outcomes active, inactive

Answered cases to consult:
compound	assigned.label
CCCCCCCCOC(=O)c1ccc(O)cc1	inactive
O=C(O)c1ccc(Cl)c(Cl)c1	inactive
CCCCN(CCCC)C(=O)N(CCCC)CCCC	inactive
CCCC1O[C@@H]2C[C@H]3[C@@H]4CCC5=CC(=O)C=C[C@]5(C)[C@H]4[C@@H](O)C[C@]3(C)[C@]2(C(=O)CO)O1 (some centres not stated)	inactive
CCCN(CCC)C(=O)C(CCC(=O)OCCCN1CCN(CCOC(=O)Cc2c(C)n(C(=O)c3ccc(Cl)cc3)c3ccc(OC)cc23)CC1)NC(=O)c1ccccc1 (configuration not stated)	inactive

### Prompt Please let me know the test result on file for NNc1nc(-c2ccc(N)cc2)cs1 .
### Response inactive

### Prompt # outcome recorded in this test, key = C[C@@H](NCCCc1cccc(C(F)(F)F)c1)c1cccc2ccccc12
### Response active

###

# test.summary: qHTS assay to test for compound auto fluorescence at 460 nm (blue) in HEK293 cells (AID 720678); also: % is scaled to controls: 0 for no effect and ±100 for the full control effect
# experimental.parameters: blue autofluorescence 405/460 nm; series mostly up to 91.3 µM
# Source text: National Center for Advancing Translational Sciences [NCATS] NIH Chemical Genomics Center [NCGC] U.S. Environmental Protection Agency [EPA] National Institutes of Environmental Health Sciences [NIEHS] National Toxicology Program [NTP] U.S. Food and Drug Administration [FDA] Compound auto fluorescence often interferes with screening of the compound library against various biological targets and signaling pathways. Some of these compounds may have fluorophoric properties. […]
Active and inactive are the calls of the source. The call rests on the fitted dose curve; in most records, active means well fitted curve in the direction sought with a large enough effect in the repeat runs; inconclusive means weak or mixed curves; inactive means flat fitted curve, though single readings scatter.

line.notation	fluorescence, % of triamterene
NC(=NCCCCCCN=C(N)/N=C(\N)Nc1ccc(Cl)cc1)/N=C(\N)Nc1ccc(Cl)cc1	inactive
c1ccc(CSCc2ccccc2)cc1	inactive
CCCCCCCC[N+](CCCCCCCC)(CCCCCCCC)CCCCCCCC	inactive

###

# test.summary: qHTS assay to identify small molecule antagonists of the estrogen receptor alpha (ER-alpha) signaling pathway using the BG1 cell line (AID 743080);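 also: BG1 cells stimulated with 17beta-estradiol alongside compound; nearly all actives have a fitted effect of over 25% in size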
# experimental.parameters: BG1Luc4E2 ERE-luciferase antagonist mode, luminescence; series mostly up to 70.3 µM
Records with an inconclusive call do not appear. The source made the active and inactive calls. The call rests on the fitted dose curve.
Hi! Could you answer with just one of these? active, inactive

Recorded results for 4 compounds are shown here.
compound	assigned.label
O=C(c1ccc(F)cc1)C1CCN(CCn2c(=O)[nH]c3ccccc3c2=O)CC1	inactive
O=CC=C(c1ccccc1)c1ccccc1	active
Cc1cc(C2CCCCC2)n(O)c(=O)c1	active
CN(C)c1ccc(SC#N)cc1	inactive

### Prompt Short answer needed: outcome of this test for NNc1nc(-c2ccc(N)cc2)cs1 ?
### Response inactive

### Prompt What did the test return for CCOC(=O)/C=C(C)/C=C/C=C(C)/C=C/c1c(C)cc(OC)c(C)c1C ?
### Response active

### Prompt Answer briefly: the call reported for Cc1nc(-c2ccc3c(c2)CCN(CCC2CCC(NC(=O)/C=C/c4ccc(F)cc4)CC2)CC3)no1 (centres undefined) in this assay.
### Response inactive

### Prompt What did this assay record as the result for CN1CCN(CCC(=O)N2c3ccccc3Sc3ccc(C(F)(F)F)cc32)CC1 ?
### Response inactive

### Prompt # lookup: test call for CSc1ccc(/C=C2/C(C)=C(CC(=O)O)c3cc(F)ccc32)cc1
### Response inactive

### Prompt Returns: the outcome recorded for Oc1cccc(-c2c3nc(c(-c4cccc(O)c4)c4ccc([nH]4)c(-c4cccc(O)c4)c4nc(c(-c5cccc(O)c5)c5ccc2[nH]5)CC4)C=C3)c1 in this assay.
### Response inactive

### Prompt // return assay outcome for NC(=O)NS(=O)(=O)c1ccc(N)cc1
### Response inactive

### Prompt I'd appreciate the recorded outcome for CSc1ccc2c(c1)C(N1CCN(C)CC1)Cc1ccccc1S2 (centres undefined) from this test.
### Response inactive

###

# test.summary: qHTS assay to identify small molecule antagonists of the peroxisome proliferator-activated receptor gamma (PPARg) signaling pathway - cell viability counter screen (AID 743194); also: nearly all actives have a fitted effect of over 55% in size
# experimental.parameters: PPARg-bla HEK293H viability, CellTiter-Glo luminescence, 17 h, co-treated with 50 nM rosiglitazone; series mostly up to 62.6 µM
Results filed as inconclusive are left out. Active and inactive are the calls of the source. The call rests on the fitted dose curve; in most records, active means well fitted cell-killing curve with a large enough effect in the repeat runs; inconclusive means weak or mixed curves, or effect the other way; inactive means no such curve, though single readings can be large or run the other way.
Can you answer with just one of these options? class 1 = active, class 0 = inactive

compound	assigned.label
O=C(Nc1cccc(C(F)(F)F)c1)c1cc(Br)cc(Br)c1O	class 1

### Prompt Name the outcome recorded for CCCC(c1cc(C(C)(C)C)c(O)cc1C)c1cc(C(C)(C)C)c(O)cc1C in the assay.
### Response class 1

### Prompt Could you kindly confirm the outcome this assay logged for CCCC/C=C/CCCCO ?
### Response class 0

### Prompt Please share the test call associated with O=C1CCCc2c1cc1ccc3cccc4ccc2c1c34 .
### Response class 0

### Prompt What classification did C[C@]12CCC(=O)C=C1CC[C@@H]1[C@@H]2[C@@H](O)C[C@@]2(C)[C@H]1CC[C@]2(O)C(=O)COC(=O)CCC(=O)O end up with in this test?
### Response class 0

### Prompt Hi, do you know how NNc1nc(-c2ccc([N+](=O)[O-])cc2)cs1 came out in this test?
### Response class 1
